Experimental Target: Lysine-specific demethylase 5B (Homo sapiens) (UniProt Q9UGL1)
Sequence (Q9UGL1 whole entry, looked up): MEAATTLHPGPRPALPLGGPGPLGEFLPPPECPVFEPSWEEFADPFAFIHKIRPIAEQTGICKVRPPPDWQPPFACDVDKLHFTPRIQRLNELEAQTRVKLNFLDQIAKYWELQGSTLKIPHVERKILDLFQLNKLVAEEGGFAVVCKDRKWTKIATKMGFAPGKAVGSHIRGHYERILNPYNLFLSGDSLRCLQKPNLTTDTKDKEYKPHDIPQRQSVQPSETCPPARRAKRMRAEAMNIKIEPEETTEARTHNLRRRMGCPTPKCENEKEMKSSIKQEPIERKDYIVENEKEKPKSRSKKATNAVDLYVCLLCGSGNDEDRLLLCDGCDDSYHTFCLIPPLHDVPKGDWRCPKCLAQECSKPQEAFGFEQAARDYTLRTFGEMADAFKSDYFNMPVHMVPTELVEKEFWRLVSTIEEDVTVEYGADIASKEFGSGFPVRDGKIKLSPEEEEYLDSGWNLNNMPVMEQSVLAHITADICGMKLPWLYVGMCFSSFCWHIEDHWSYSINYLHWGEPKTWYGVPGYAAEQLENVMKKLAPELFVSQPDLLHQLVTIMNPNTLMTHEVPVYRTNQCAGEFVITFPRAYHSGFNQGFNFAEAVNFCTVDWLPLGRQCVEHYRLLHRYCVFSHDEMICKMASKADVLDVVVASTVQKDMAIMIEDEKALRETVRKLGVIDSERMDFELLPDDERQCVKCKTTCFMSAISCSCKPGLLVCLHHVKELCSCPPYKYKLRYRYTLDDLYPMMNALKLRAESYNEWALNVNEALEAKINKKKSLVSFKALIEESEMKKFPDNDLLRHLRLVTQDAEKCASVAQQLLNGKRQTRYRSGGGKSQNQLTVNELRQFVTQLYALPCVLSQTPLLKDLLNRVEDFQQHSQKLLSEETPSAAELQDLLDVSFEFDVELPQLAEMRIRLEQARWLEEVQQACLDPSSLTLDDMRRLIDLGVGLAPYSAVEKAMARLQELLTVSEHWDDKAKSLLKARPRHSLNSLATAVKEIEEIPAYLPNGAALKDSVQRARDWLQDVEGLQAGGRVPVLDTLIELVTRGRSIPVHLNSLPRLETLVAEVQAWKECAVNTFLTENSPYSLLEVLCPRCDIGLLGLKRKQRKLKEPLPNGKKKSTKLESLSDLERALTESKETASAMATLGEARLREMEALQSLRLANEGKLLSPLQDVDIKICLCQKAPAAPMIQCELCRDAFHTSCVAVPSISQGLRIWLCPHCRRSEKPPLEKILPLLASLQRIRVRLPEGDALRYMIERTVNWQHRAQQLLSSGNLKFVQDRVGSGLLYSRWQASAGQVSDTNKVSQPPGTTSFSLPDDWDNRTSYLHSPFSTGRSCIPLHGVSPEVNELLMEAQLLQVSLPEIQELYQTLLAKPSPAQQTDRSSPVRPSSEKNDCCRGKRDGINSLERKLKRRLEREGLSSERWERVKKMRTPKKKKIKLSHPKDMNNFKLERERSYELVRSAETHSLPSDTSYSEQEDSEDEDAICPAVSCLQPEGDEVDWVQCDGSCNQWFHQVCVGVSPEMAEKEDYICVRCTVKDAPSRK
Method: Optimization screen for KDM5B Histone Demethylases FDH coupled qHTS against the LOPAC library (AID 1347166)
Test Parameters: KDM5B demethylation, FDH-coupled NADH fluorescence (FDH is formaldehyde dehydrogenase); series mostly up to 57.5 µM
Results filed as inconclusive are left out. The source made the active and inactive calls. Calls come from the whole dose curve; as a rule, active = well fitted inhibition curve with a large enough effect; inconclusive = small, poorly fitted or top-dose-only effect; inactive = flat fitted curve, though single readings scatter.
Value Type: outcome

INSERT INTO results (molecule, reported_result) VALUES
  ('Nc1nc2c(ncn2COC(CO)CO)c(=O)[nH]1', 'inactive'),
  ('CCCCc1oc2ccccc2c1C(=O)c1cc(I)c(OCCN(CC)CC)c(I)c1', 'inactive'),
  ('CN1CCC(=C2c3ccccc3C=Cc3ccccc32)CC1', 'inactive'),
  ('Nc1ccn([C@H]2CC[C@@H](CO)O2)c(=O)n1', 'inactive'),
  ('Nc1nnc(-c2cccc(Cl)c2Cl)c(N)n1', 'inactive'),
  ('COc1ccccc1OCCNCC(O)COc1cccc2[nH]c3ccccc3c12 (stereo unspecified)', 'inactive');

###

Test system: TAB109
Method: qHTS profiling for inhibitors of Plasmodium falciparum proliferation (AID 504749); note: nearly all actives have a fitted effect of over 60% in size; note: potency is the fitted concentration of half-maximal effect
Test Parameters: P. falciparum in erythrocytes, SYBR Green DNA, 72 h; series mostly up to 28.7 µM
Inconclusive results are not listed. Activity calls are given as the source filed them. Calls come from the whole dose curve; as a rule, active = well fitted inhibition curve with a large enough effect; inconclusive = small, poorly fitted or top-dose-only effect; inactive = flat fitted curve, though single readings scatter.
Value Type: Potency

INSERT INTO assay_data (compound, experimental_target, reported_result) VALUES
  ('COC(=O)Nc1nc2ccc(C(=O)c3cccs3)cc2[nH]1', 'TAB109', 'inactive'),
  ('Cc1cn([C@H]2C[C@H](N=[N+]=[N-])[C@@H](CO)O2)c(=O)[nH]c1=O', 'TAB109', 'inactive'),
  ('CN1CCN2c3ccccc3Cc3ccccc3C2C1 (stereo unspecified)', 'TAB109', 'inactive'),
  ('NCCS(=O)(=O)O', 'TAB109', 'inactive'),
  ('CCCCc1oc2ccccc2c1C(=O)c1cc(I)c(OCCN(CC)CC)c(I)c1', 'TAB109', '7.08 µM (active)'),
  ('Nc1nnc(-c2cccc(Cl)c2Cl)c(N)n1', 'TAB109', 'inactive'),
  ('CC(=O)OCC(CCn1cnc2cnc(N)nc21)COC(C)=O', 'TAB109', 'inactive'),
  ('Clc1ccc2nsnc2c1NC1=NCCN1', 'TAB109', 'inactive'),
  ('O=C1c2c(O)ccc(O)c2C(=O)c2c(NCCNCCO)ccc(NCCNCCO)c21', 'TAB109', '2.24 µM (active)'),
  ('OCCN1CCN(CCCN2c3ccccc3Sc3ccc(C(F)(F)F)cc32)CC1', 'TAB109', '7.08 µM (active)'),
  ('CN(Cc1cnc2nc(N)nc(N)c2n1)c1ccc(C(=O)N[C@@H](CCC(=O)O)C(=O)O)cc1', 'TAB109', 'inactive');

###

System: AA1029
Method: qHTS profiling for inhibitors of Plasmodium falciparum proliferation (AID 504749); note: nearly all actives have a fitted effect of over 60% in size
Test Parameters: P. falciparum in erythrocytes, SYBR Green DNA, 72 h; series mostly up to 28.7 µM
Results filed as inconclusive are left out. Calls of active or inactive are those of the source. Calls follow the shape of the dose curve; as a rule, active = well fitted inhibition curve with a large enough effect; inconclusive = small, poorly fitted or top-dose-only effect; inactive = flat fitted curve, though single readings scatter.
Outcome codes: True (active), False (inactive)

INSERT INTO measurements (molecule, class_label) VALUES
  ('COc1nc(C)nc(Cl)c1NC1=NCCN1', 'False'),
  ('CCCCc1oc2ccccc2c1C(=O)c1cc(I)c(OCCN(CC)CC)c(I)c1', 'True'),
  ('CCCNCC(O)COc1ccccc1C(=O)CCc1ccccc1 (stereo not drawn)', 'True'),
  ('C[C@](N)(Cc1ccc(O)c(O)c1)C(=O)O', 'False'),
  ('CN1CCN2c3ccccc3Cc3ccccc3C2C1 (stereo not drawn)', 'False'),
  ('CCC1(c2ccccc2)C(=O)NCNC1=O', 'False'),
  ('O=C(c1ccc(F)cc1)C1CCN(CCn2c(=O)[nH]c3ccccc3c2=O)CC1', 'False'),
  ('CN(C)c1nc(N(C)C)nc(N(C)C)n1', 'False'),
  ('COc1cc2c(c(OC)c1OC)-c1ccc(OC)c(=O)cc1[C@@H](NC(C)=O)CC2', 'False'),
  ('O=C(c1ccc(OCCN2CCCCC2)cc1)c1c(-c2ccc(O)cc2)sc2cc(O)ccc12', 'True'),
  ('Cn1c(=O)c2c(ncn2C)n(C)c1=O', 'False'),
  ('CC(=O)OCC(CCn1cnc2cnc(N)nc21)COC(C)=O', 'False'),
  ('CN(C)C(=N)N=C(N)N', 'False'),
  ('Cc1cnc(C(=O)NCCc2ccc(S(=O)(=O)NC(=O)NC3CCCCC3)cc2)cn1', 'False'),
  ('CC(CCc1ccc(O)cc1)NCCc1ccc(O)c(O)c1 (stereo not drawn)', 'False'),
  ('CN(Cc1cnc2nc(N)nc(N)c2n1)c1ccc(C(=O)N[C@@H](CCC(=O)O)C(=O)O)cc1', 'False'),
  ('CC(C)NCC(O)c1ccc(O)c(O)c1 (stereo not drawn)', 'False'),
  ('O=C1N(c2ccccc2)c2ccccc2C1(Cc1ccncc1)Cc1ccncc1', 'False'),
  ('CC(C)(Oc1ccc(C2CC2(Cl)Cl)cc1)C(=O)O (stereo not drawn)', 'False'),
  ('CC(C)(C)C(=O)Oc1ccc(S(=O)(=O)Nc2ccccc2C(=O)NCC(=O)O)cc1', 'False'),
  ('CC#C[C@]1(O)CC[C@H]2[C@@H]3CCC4=CC(=O)CCC4=C3[C@@H](c3ccc(N(C)C)cc3)C[C@@]21C', 'True'),
  ('COC(=O)Nc1nc2ccc(C(=O)c3cccs3)cc2[nH]1', 'False'),
  ('CN1C(C(=O)Nc2ccccn2)=C(O)c2ccccc2S1(=O)=O', 'False');
